assay: Selectivity index, ratio of CC50 for human MT4 cells to EC50 for HIV13B; format: toxicity, cell-based; settings: read-out: Ratio CC50/EC50
Param threshold (20) applies to selectivity ratio; output true when value >= threshold, false when value < threshold.

smiles_code	assigned_label
CCOC(=O)/C(O)=C/C(=O)c1cn(Cc2ccc(F)cc2)c2cc(OC)cc(OC)c12	true
COc1cccc2c1c(C(=O)/C=C(\O)C(=O)O)cn2Cc1ccc(F)cc1	true
COc1ccc2c(c(C(=O)/C=C(\O)C(=O)O)cn2Cc2ccc(F)cc2)c1OC	true
CCOC(=O)/C(O)=C/C(=O)c1cn(Cc2ccc(F)cc2)c2ccc(OC)c(OC)c12	true
CCOC(=O)/C(O)=C/C(=O)c1cn(Cc2ccc(F)cc2)c2c(OC)c(OC)ccc12	false
COc1cc2c(C(=O)/C=C(\O)C(=O)O)cn(Cc3ccc(F)cc3)c2cc1OC	false
CCOC(=O)/C(O)=C/C(=O)c1cn(Cc2ccc(F)cc2)c2c(OC)cc(OC)cc12	false
CCOC(=O)/C(O)=C/C(=O)c1cn(Cc2ccc(F)cc2)c2cc(OC)c(OC)cc12	false
COc1cc(OC)c2c(c1)c(C(=O)/C=C(\O)C(=O)O)cn2Cc1ccc(F)cc1	false
COc1ccc2c(C(=O)/C=C(\O)C(=O)O)cn(Cc3ccc(F)cc3)c2c1OC	false
COc1cc(OC)c2c(C(=O)/C=C(\O)C(=O)O)cn(Cc3ccc(F)cc3)c2c1	false
